Reported TGI values for the following molecules.
System: OVCAR-5 ovarian
Test: NCI tumour cell line growth inhibition, 48 h

O=C(O)c1ccccc1C(=O)c1ccc2c(c1)Cc1ccccc1-2; > 100 µM

Q) Record request: TGI value, item `Cc1ccc(NC(=O)/C(Cc2cc(=O)oc3cc(O)ccc23)=N\NC(=O)C[N+](C)(C)C)cc1C`
A) > 100 µM

Q) Follow-up entry: O=C1C2=Nc3ccccc3C(O)(C(=O)O)N2c2ccccc21 (configuration not stated)
A) 49.4 µM

Q) What about `CC(=O)n1c(=O)c2cc3c(=O)n(-c4cccc(C#N)c4)c(=O)c3cc2c1=O` ?
A) > 100 µM

Q) Entry to check: `CCOC(=O)c1ccc(Nc2nc3ccc(C(F)(F)F)cc3nc2C(=O)OCC)cc1`
A) > 100 µM

Q) What do you get for CCOC(=O)C(NC(=O)Nc1ccc(Cl)cc1)(OC)C(F)(F)F (configuration not stated) ?
A) > 100 µM

Q) Again, but for `O=C(NCCN1CCNCC1)c1ccc(Nc2nc3ccccc3c3occc23)cc1`
A) 29.5 µM

====

Tested on: SK-MEL-2 melanoma
Answer with one of the outcomes given here: active, inactive

Q) Recorded call for `C/C1=C\CC[C@@](C)(O)[C@@H]2C[C@H](CC/C(C)=C/CC1)C1(CC1)C(=O)O2` ?
A) inactive

Q) Further, for `CSc1ccc(N(C)c2nc(C)nc3c2CCC3)cc1` ?
A) active

Q) Now try `COc1cccc(COc2cc(-n3cnc4ccccc43)sc2C(N)=O)c1` .
A) inactive

Q) Another compound to check: `O=C(NCCN1CCNCC1)c1ccc(Nc2nc3ccccc3c3occc23)cc1`
A) inactive

Q) Also need `CCN(CC)c1ccc(/C=C/C2=[N+](C)c3ccccc3C2(C)C)c(C)c1` , thanks.
A) active

Q) What would you report for `O=C(/C=C/c1cccc(O)c1)c1cccc(-n2cc(-c3ccc4ccccc4c3)[nH]c2=O)c1` ?
A) inactive

Q) Param item: `O=[N+]([O-])c1ccc(-c2cc3c(Nc4ccc(Cl)c(C(F)(F)F)c4)ncnc3s2)cc1`
A) inactive

Q) Then this compound: `OCc1ccc(N2CCOCC2)cc1Cl`
A) inactive

====

Tested on: U251 CNS
Assign a class; possible classes are active, inactive

These solved cases illustrate the format of a correct answer.
COc1ccc(-n2nc(C)c3c(Nc4ccc(NC(=O)Nc5ccc(Cl)c(C(F)(F)F)c5)cc4)ncnc32)cc1; inactive
COc1ccc(C2=C(N3CCc4ccccc43)C(=O)NC2=O)cc1; inactive
[2H]c1nc(=Nc2cc(NC(=O)C=C)c(N(C)CCN(C)C)cc2OC)[nH]c(-c2cn(C([2H])([2H])[2H])c3ccccc23)c1[2H]; inactive
CCCCCCCCCCCCCC[n+]1cccc(C(N)=O)c1; inactive
O=C(/C=C/c1cccc(O)c1)c1cccc(-n2cc(-c3ccc4ccccc4c3)[nH]c2=O)c1; inactive
Nc1cc(-c2ccc(Cl)cc2)nn1-c1nnc(/C=C/c2ccco2)c(=O)[nH]1; inactive
O=C1c2ccccc2-c2c1c1ccccc1c(=O)n2CCNCCn1c2c(c3ccccc3c1=O)C(=O)c1ccccc1-2; inactive
CC(=Nc1ccc(S(N)(=O)=O)cc1)c1c(O)[nH]c2ccccc12; inactive

Q) Would you mind telling me which call this test gave `c1cnn2ncc(-c3ccnc(Nc4ccc5c(c4)OCCO5)n3)c2c1` ?
A) active

Q) How about this compound: CC1c2ccccc2N=C2SC(=S)N3CCN=C3N21 (stereo unspecified)
A) inactive

Q) Follow-up item: `OCc1ccc(N2CCOCC2)cc1Cl`
A) inactive

====

System: HL-60(TB) leukemia
Assay: NCI tumour cell line growth inhibition, 48 h
Observable: TGI

O=C1C2=Nc3ccccc3C(O)(C(=O)O)N2c2ccccc21 (stereo unspecified); 77 µM
O=C(NCCN1CCNCC1)c1ccc(Nc2nc3ccccc3c3occc23)cc1; 33.5 µM
c1cnn2ncc(-c3ccnc(Nc4ccc5c(c4)OCCO5)n3)c2c1; 0.155 µM
Cc1cc(C)n(C2=NS(=O)(=O)c3ccccc3N2C)n1; > 100 µM
CN(C)c1ccc(Cc2cc3c(O)ccc(O)c3cc(Cc3ccc(N(C)C)cc3)c2=O)cc1; > 37.6 µM

With those in mind, consider the next compound.
Q) Form field: reported TGI of `CCOC(=O)NC(Nc1c(F)c(F)c(F)c(F)c1F)(C(F)(F)F)C(F)(F)F`
A) > 100 µM

====

Test system: OVCAR-3 ovarian
Experiment: NCI tumour cell line growth inhibition, 48 h
Quick reference for GI50 among some compounds

COc1cc2nc(-c3ccc(C(F)(F)F)cc3)cc(OCCCN3CCCC3)c2cc1OC; 4.07 µM

# evaluate next
Q) Recorded GI50 of `[2H]c1nc(=Nc2cc(NC(=O)C=C)c(N(C)CCN(C)C)cc2OC)[nH]c(-c2cn(C([2H])([2H])[2H])c3ccccc23)c1[2H]` , please.
A) 1.18 µM

====

Test system: NCI-H226 lung
Test: NCI tumour cell line growth inhibition, 48 h
Observable: GI50

# example entries with known answers
COc1ccc(C2=C(N3CCc4ccccc43)C(=O)NC2=O)cc1; > 25 µM
[2H]c1nc(=Nc2cc(NC(=O)C=C)c(N(C)CCN(C)C)cc2OC)[nH]c(-c2cn(C([2H])([2H])[2H])c3ccccc23)c1[2H]; 2.45 µM
Fc1ccc2nc(-c3cc(-c4ccc5c(c4)OCO5)n[nH]3)[nH]c2c1; 3.92 µM

Q) I am curious: what GI50 value has been reported for `Nc1cc(-c2ccc(Cl)cc2)nn1-c1nnc(/C=C/c2ccco2)c(=O)[nH]1` ?
A) 10.1 µM

Q) Try this compound next: `CCn1c(-c2nonc2N)nc2ccncc21`
A) > 25 µM

====

Reported TGI by item:
Tested on: HOP-92 NSCLC
Experiment: NCI tumour cell line growth inhibition, 48 h

A selection of reference data follows.
COc1cccc(COc2cc(-n3cnc4ccccc43)sc2C(N)=O)c1; > 25 µM
COc1ccc(-c2c(C3=NCCCN3)nnn2-c2ccc([N+](=O)[O-])cc2)cc1; > 100 µM

Q) What value of TGI has been reported for the following molecule? CCCCCCC(C)CCCCCCCCCCC(=O)O (stereo unspecified)
A) > 100 µM

Q) Next entry: C=C1C(=O)C23C(O)C1CC[C@H]2C12CCCC(C)(COC(C)=O)[C@H]1[C@H](O)[C@]3(O)OC2 (stereo partly specified)
A) 3.02 µM

Q) Record: `CN(C)C(=S)Nc1nnc(Nc2ccccc2)s1`
A) > 100 µM

Q) Another molecule to look at: `CC(=Nc1ccc(S(N)(=O)=O)cc1)c1c(O)[nH]c2ccccc12`
A) > 25 µM

====

Tested on: NCI-H23 lung
Experiment: NCI tumour cell line growth inhibition, 48 h
Here, each record is paired with measured GI50 data.

Some solved entries appear below for comparison.
CCNCCNc1cc(-c2ccc(C#N)cc2)c(C#N)c2nc3ccccc3n12; 5.3 µM
Nc1cc(-c2ccc(Cl)cc2)nn1-c1nnc(/C=C/c2ccco2)c(=O)[nH]1; 7.73 µM
CCCCCCCCCCCCCC[n+]1cccc(C(N)=O)c1; 2.28 µM
COc1ccc(C2=C(N3CCc4ccccc43)C(=O)NC2=O)cc1; > 25 µM

Q) Item `COc1ccc(-n2nc(C)c3c(Nc4ccc(NC(=O)Nc5ccc(Cl)c(C(F)(F)F)c5)cc4)ncnc32)cc1` has what recorded GI50?
A) 1.69 µM

====

Test system: HL-60(TB) leukemia
Assay: NCI tumour cell line growth inhibition, 48 h
Observable: TGI (µM)
Write it as a number; the unit µM goes unstated.

CN(C)c1cccc2c1C(=O)C=CC21c2ccc(N(C)C)c3c(N(C)C)ccc(c23)C(c2ccccc2)C1c1ccccc1 (stereo not given); 22.6
O=S1CSSC1; 61.5

Please look at the following compound next.
Q) What measured TGI goes with CCOC(=O)C1(Cc2ccc3ccccc3c2)CCCCC(=O)N1 (stereo not given) ?
A) 30.3

====

System: U251 CNS
Assay: NCI tumour cell line growth inhibition, 48 h
Observable: TGI (µM)
# output: bare number, implied unit µM

A selection of reference data follows.
CCCCCCCCCCCCCCCCCCOCC(COCCOCC[N+]1(CCCCCC(=O)[O-])CCCC1)Oc1ncccn1 (stereo not drawn); 8.5
COc1cc(C2c3cc4c(cc3[C@@H](Nc3ccc5c(c3)OCCO5)C3COC(=O)[C@H]23)OCO4)cc(OC)c1O (stereo partly drawn); 8.26
CN(C)c1ccc(Cc2cc3c(O)ccc(O)c3cc(Cc3ccc(N(C)C)cc3)c2=O)cc1; 41.4

Q) Param readout = TGI; param system = U251 CNS; param query = `CCNCCNc1cc(-c2ccc(C#N)cc2)c(C#N)c2nc3ccccc3n12` ; response: value
A) 5.2

====

Overview of recorded TGI for various compounds
Test system: HCT-116 colon
Test: NCI tumour cell line growth inhibition, 48 h

Example entries and their recorded answers appear below.
O=C(c1cccs1)C1NO[N+]([O-])=C1c1cccs1 (stereo unspecified); 10.2 µM
CON(C)C(=O)C1CCCO1 (stereo unspecified); > 100 µM
C=C1C(=O)C23C(O)CC4C5(C)CCCC4(C(O)OC5)C2C(OC(C)=O)CC1C3O (stereo unspecified); 18.5 µM
C/C1=C\CC[C@@](C)(O)[C@@H]2C[C@H](CC/C(C)=C/CC1)C1(CC1)C(=O)O2; 54.1 µM

Q) Value lookup for TGI; key = Cc1cccc(C)c1N1C(=O)C(=O)C(c2nc3ccccc3s2)/C(=N/NC(=O)NN)C1=O (stereo unspecified)
A) > 100 µM

Q) Input c1ccc2c(c1)CCCC/C2=N/OCC1CO1 (stereo unspecified)
A) > 100 µM

Q) Repeat with CCOC(=O)C1CCC(=O)N1C(=O)c1ccccc1Cl (stereo unspecified)
A) > 100 µM

Q) Same for `COc1ccc(C2=C(N3CCc4ccccc43)C(=O)NC2=O)cc1`
A) > 25 µM

Q) Same again, this time with `CC(=O)n1nc(-c2ccccc2)n(/N=C/c2ccc([N+](=O)[O-])o2)c1=O`
A) 3.71 µM

Q) How about this compound: COC(=O)C1(O)C(c2ccccc2)=NC2(C)CCCC21 (stereo unspecified)
A) > 100 µM

Q) Try this compound too: `C[n+]1c(/C=C/c2ccc(O)c3ncccc23)[se]c2ccccc21`
A) 11.4 µM

Q) Field entry: `c1ccc([P+](CCCCCCCC[P+](c2ccccc2)(c2ccccc2)c2ccccc2)(c2ccccc2)c2ccccc2)cc1`
A) > 100 µM

Q) Now try `O=[N+]([O-])c1ccc(-c2cc3c(Nc4ccc(Cl)c(C(F)(F)F)c4)ncnc3s2)cc1` .
A) > 100 µM

Q) Then O=C(CC(=O)Nc1ccccc1)NNC(c1cc(N=Nc2ccc(Br)cc2)ccc1O)P(O)O (stereo unspecified) ?
A) 5.64 µM

// provenance: PubChem BioAssay (NCI)
